# Test system: SNB-19
# assay_details: Growth inhibition of human SNB19 cells assessed as growth inhibition at 10 uM by sulforhodamine B assay
# Assay type: functional
# reported_conditions: read-out: GI
Listing of entries alongside the reported inhibition of growth at 10 µM.

compound_structure_string: CC1(C)C[C@@H](O)[C@]2(C(=O)O)CC[C@]3(C)C(=CC[C@@H]4[C@@]5(C)CC[C@H](O)C(C)(C)[C@@H]5CC[C@]43C)[C@@H]2C1
inhibition of growth at 10 µM: < 10%

compound_structure_string: CC1(C)C[C@@H](O)[C@]2(C(=O)O)CC[C@]3(C)C(=CC[C@@H]4[C@@]5(C)CCC(=O)C(C)(C)[C@@H]5CC[C@]43C)[C@@H]2C1
inhibition of growth at 10 µM: < 10%

compound_structure_string: COc1cc(/C=C2\C[C@]3(C)[C@H]4CC=C5[C@@H]6CC(C)(C)C[C@@H](O)[C@]6(C(=O)O)CC[C@@]5(C)[C@]4(C)CC[C@H]3C(C)(C)C2=O)ccc1O
inhibition of growth at 10 µM: < 10%
